These data points were gathered from patent US20220315554A1.

assay: in vivo; settings: rat, plasma, intravenous, 2 nmol/kg
OBSERVED_PROPERTY: clearance (mL/min/kg)

smiles=CCCCCC(=O)N[C@H]1CSCc2cc(CSCCNC(=O)CN3CCN(CC(=O)O)CCN(CC(=O)O)CCN(CC(=O)O)CC3)cc(c2)CSC[C@@H](C(=O)O)NC(=O)[C@H](Cc2ccccc2)NC(=O)[C@H](CCC(N)=O)NC(=O)[C@H]([C@@H](C)O)NC(=O)[C@@H]2CCCN2C(=O)[C@@H]2CCCN2C1=O measured_result=4.13

----------
Recorded IC50, one value per entry.
Biological target: Human recombinant FAP (Homo sapiens)
Sequence (Q12884 1-760): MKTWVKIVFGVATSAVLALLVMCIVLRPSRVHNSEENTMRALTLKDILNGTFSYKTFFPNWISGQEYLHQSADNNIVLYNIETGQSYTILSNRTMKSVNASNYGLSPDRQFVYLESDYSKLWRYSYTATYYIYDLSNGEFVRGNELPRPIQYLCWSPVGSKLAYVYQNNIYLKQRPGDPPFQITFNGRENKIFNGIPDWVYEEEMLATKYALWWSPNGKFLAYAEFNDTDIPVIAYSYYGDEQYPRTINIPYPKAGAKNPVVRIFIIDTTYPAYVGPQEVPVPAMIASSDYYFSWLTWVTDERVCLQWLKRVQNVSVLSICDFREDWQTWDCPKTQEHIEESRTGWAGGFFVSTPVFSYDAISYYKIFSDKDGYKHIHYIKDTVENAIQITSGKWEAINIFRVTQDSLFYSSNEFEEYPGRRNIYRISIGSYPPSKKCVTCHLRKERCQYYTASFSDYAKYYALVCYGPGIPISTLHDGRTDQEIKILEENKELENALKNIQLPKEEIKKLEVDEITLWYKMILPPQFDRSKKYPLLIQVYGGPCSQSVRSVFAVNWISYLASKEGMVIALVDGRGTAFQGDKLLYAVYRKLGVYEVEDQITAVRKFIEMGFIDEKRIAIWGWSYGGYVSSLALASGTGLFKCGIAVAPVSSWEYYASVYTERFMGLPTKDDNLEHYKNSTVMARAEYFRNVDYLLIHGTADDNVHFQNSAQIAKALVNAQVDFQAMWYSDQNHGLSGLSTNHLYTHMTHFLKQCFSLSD
Assay: FRET-based FAP protease activity assay
Format: biochemical
Parameters: purchased R&D systems 3715-SE
Settings: pIC50 Category (Activity), recombinant human FAP, FRET substrate, 37° C.
Numbered stars: 1 amine (or outer) side, 2 acyl side, 3 side chain; on linkers, the order of the positions; unused ones are H or OH. Bridge positions count the residues as written; N and C are the ends. Square brackets hold non-standard residues; d marks the D form. Peptide text beside a SMILES is read from it. * marks the point of attachment. X2 = O=C(O)CN1CCN(CC(=O)O)CCN(CC(=O)NCCCOCCOCCOCCCN*)CCN(CC(=O)O)CC1; mXylylene = c1cc(C[*:1])cc(C[*:2])c1; Suc = O=C(CCC(=O)[*:2])[*:1]; 4Amb = NCc1ccc(C(=O)O)cc1; Nle = CCCC[C@H](N)C(=O)O; Hexanoyl = CCCCCC(=O)*
OBSERVED_PROPERTY: IC50

molecule="CCCCCC(=O)N[C@H]1CSCc2cccc(c2)CSC[C@@H](C(=O)NCc2ccc(C(=O)N[C@@H](CCCNC(=N)N)C(N)=O)cc2)NC(=O)[C@H](Cc2ccccc2)NC(=O)[C@H](CCC(=O)O)NC(=O)[C@H]([C@@H](C)O)NC(=O)[C@@H]2CCCN2C(=O)[C@@H]2CCCN2C1=O [3BP-3303] (Hexanoyl-CPPTEFC[4Amb]R-NH2; linker 1-7 via mXylylene)" observed_property=IC50 measured_result="< 10 nM"
molecule="CCCC[C@H](NC(=O)CCC(=O)NCCCOCCOCCOCCCNC(=O)CN1CCN(CC(=O)O)CCN(CC(=O)O)CCN(CC(=O)O)CC1)C(=O)N[C@H]1CSCc2cccc(c2)CSC[C@@H](C(N)=O)NC(=O)[C@H](Cc2ccccc2)NC(=O)[C@H](CCC(=O)O)NC(=O)[C@H]([C@@H](C)O)NC(=O)[C@@H]2CCCN2C(=O)[C@@H]2CCCN2C1=O [3BP-3319] ({X2-Suc}-[Nle]CPPTEFC-NH2; linker 2-8 via mXylylene)" observed_property=IC50 measured_result="10 to 79.4 nM"
molecule="CSCC[C@H](NC(C)=O)C(=O)N[C@H]1CSCc2cccc(c2)CSC[C@H](C(=O)N[C@@H](CC(=O)O)C(=O)N[C@@H](Cc2c[nH]cn2)C(=O)N[C@@H](Cc2ccccc2)C(=O)N[C@@H](CCCNC(=N)N)C(=O)N[C@@H](CC(=O)O)C(N)=O)NC(=O)[C@H](Cc2ccccc2)NC(=O)[C@H](CCC(=O)O)NC(=O)[C@H]([C@@H](C)O)NC(=O)[C@@H]2CCCN2C(=O)[C@@H]2CCCN2C1=O [3BP-3182] (Ac-MCPPTEF[dC]DHFRD-NH2; linker 2-8 via mXylylene)" observed_property=IC50 measured_result="10 to 79.4 nM"
